Below are pKi values recorded for HIV-1 protease (Human immunodeficiency virus, UniProt Q9YQ34).
pKi: −log10 of the molar value.
Measured Parameter: pKi

CNC(=O)[C@@H](NC(=O)[C@H](OCc1cccc(C(=O)NC2CCCCC2)c1)[C@H](O)[C@@H](O)[C@@H](OCc1cccc(C(=O)NC2CCCCC2)c1)C(=O)N[C@H](C(=O)NC)C(C)C)C(C)C	7.70

(A) CCOC(=O)c1ccc(NC(=O)c2ccccc2CO[C@@H](C(=O)N[C@H](C(=O)NC)C(C)C)[C@H](O)[C@@H](O)[C@@H](OCc2ccccc2C(=O)Nc2ccc(C(=O)OCC)cc2)C(=O)N[C@H](C(=O)NC)C(C)C)cc1
(B) CNC(=O)[C@@H](NC(=O)[C@H](OCc1cccc(C(=O)Nc2ccccc2)c1)[C@H](O)[C@@H](O)[C@@H](OCc1cccc(C(=O)Nc2ccccc2)c1)C(=O)N[C@H](C(=O)NC)C(C)C)C(C)C
In terms of reported pKi, does A or B have the smaller number? Give the label under which the chosen entry appears.
A

###

Notes on Ki obtained with HIV-1 protease (Human immunodeficiency virus, UniProt Q9YQ34).
Sequence (Q9YQ34 whole entry): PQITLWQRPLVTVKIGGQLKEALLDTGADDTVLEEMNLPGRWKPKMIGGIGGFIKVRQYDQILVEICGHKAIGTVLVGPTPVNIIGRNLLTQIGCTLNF
Measured Parameter: Ki (nM)

CNC(=O)[C@@H](NC(=O)[C@H](OCc1ccccc1C(=O)Nc1cccc2cnccc12)[C@H](O)[C@@H](O)[C@@H](OCc1ccccc1C(=O)Nc1cccc2cnccc12)C(=O)N[C@H](C(=O)NC)C(C)C)C(C)C	800
CNC(=O)[C@@H](NC(=O)[C@H](OCc1ccccc1C(=O)N1CCc2ccccc21)[C@H](O)[C@@H](O)[C@@H](OCc1ccccc1C(=O)N1CCc2ccccc21)C(=O)N[C@H](C(=O)NC)C(C)C)C(C)C	800
CCCCNC(=O)c1ccccc1CO[C@@H](C(=O)N[C@H](C(=O)NC)C(C)C)[C@H](O)[C@@H](O)[C@@H](OCc1ccccc1C(=O)NCCCC)C(=O)N[C@H](C(=O)NC)C(C)C	600
CNC(=O)[C@@H](NC(=O)[C@H](OCc1ccccc1C(=O)Nc1nccs1)[C@H](O)[C@@H](O)[C@@H](OCc1ccccc1C(=O)Nc1nccs1)C(=O)N[C@H](C(=O)NC)C(C)C)C(C)C	700
